# Tested on: TAL-PrA (GAL1 promoter TAL)
# assay.conditions: ChIP-qPCR
Entries annotated with measured binding signal

biopolymer.sequence: GGGGTAATTAATGTAAAT (double strand) [IDP3 similar site (ChrXIV)]
target.of.assay: TAL-PrA (GAL1 promoter TAL)
binding signal: 0.94 fold vs ACT1
//
biopolymer.sequence: AAATTAATCAGCGGTGAC (double strand) [REV7 similar site (ChrIX)]
target.of.assay: TAL-PrA (GAL1 promoter TAL)
binding signal: 0.77 fold vs ACT1
//
biopolymer.sequence: GGGGTAATTAAAATTTCT (double strand) [IQG1 similar site (ChrXVI)]
target.of.assay: TAL-PrA (GAL1 promoter TAL)
binding signal: 0.76 fold vs ACT1
//
biopolymer.sequence: GGGGTAATTAATCATTTT (double strand) [SCC2 similar site (ChrIV)]
target.of.assay: TAL-PrA (GAL1 promoter TAL)
binding signal: 0.65 fold vs ACT1
